Target: T1, human OX40 expressed on DO11.10 cells (DO11.10-hOX40) (human, UniProt P43489 29-277)
T1 sequence: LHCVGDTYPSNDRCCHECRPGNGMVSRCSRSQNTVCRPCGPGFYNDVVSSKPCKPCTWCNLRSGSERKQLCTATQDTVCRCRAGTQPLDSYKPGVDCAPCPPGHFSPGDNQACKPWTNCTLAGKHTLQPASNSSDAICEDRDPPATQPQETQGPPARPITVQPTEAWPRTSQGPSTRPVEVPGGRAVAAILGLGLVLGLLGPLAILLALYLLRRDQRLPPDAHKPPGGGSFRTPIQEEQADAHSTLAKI
Experiment: cell-based or functional assay
Kindly state SEA assay (PBMC), hIL-2 max response, crosslinked for each of the entries shown.
Please reply with the bare figure in pg/mL and do not write the unit itself.

Inquiry: Provide only the value of recorded SEA assay (PBMC), hIL-2 max response, crosslinked for FS20-22-49AA/FS30-5-37 (bispecific antibody, human IgG1, kappa, L234A L235A, V domains shown, IgG1 with LALA; also called OX40/CD137 mAb^2) VH: EVQLLESGGGLVQPGGSLRLNCAASGFTFSSYAMSWVRQAPGKGLEWVSAISGSGGSTYYADSVKGRFTISRDNSKNTLYLQMNSLRAEDTAVYYCARSYDKYWGSSIYSGLDYWGQGTLVTVSS VL: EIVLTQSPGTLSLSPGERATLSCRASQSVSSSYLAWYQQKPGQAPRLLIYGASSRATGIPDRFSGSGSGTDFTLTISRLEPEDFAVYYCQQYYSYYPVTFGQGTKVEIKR
Reply text: 30700

Inquiry: Identify SEA assay (PBMC), hIL-2 max response, crosslinked associated with the binder FS20-22-49AA/FS30-10-12 (bispecific antibody, human IgG1, kappa, L234A L235A, V domains shown, IgG1 with LALA; also called OX40/CD137 mAb^2) VH: EVQLLESGGGLVQPGGSLRLSCAASGFTFSSYDMSWVRQAPGKGLEWVSDIDPTGSKTDYADSVKGRFTISRDNSKNTLYLQMNSLRAEDTAVYYCARDLTVYGFDYWGQGTLVTVSS VL: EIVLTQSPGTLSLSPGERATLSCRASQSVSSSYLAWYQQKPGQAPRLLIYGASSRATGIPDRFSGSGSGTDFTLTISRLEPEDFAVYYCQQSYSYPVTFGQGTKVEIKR
Reply text: 23700

Inquiry: Query SEA assay (PBMC), hIL-2 max response, crosslinked for FS20-22-49AA/FS30-35-14 (bispecific antibody, human IgG1, kappa, L234A L235A, V domains shown, IgG1 with LALA; also called OX40/CD137 mAb^2) VH: EVQLLESGGGLVQPGGSLRLSCAASGFTFSAYNIHWVRQAPGKGLEWVSDISPYGGATNYADSVKGRFTISRDNSKNTLYLQMNSLRAEDTAVYYCARNLYELSAYSYGADYWGQGTLVTVSS VL: EIVLTQSPGTLSLSPGERATLSCRASQSVSSSYLAWYQQKPGQAPRLLIYGASSRATGIPDRFSGSGSGTDFTLTISRLEPEDFAVYYCQQYYYSSPITFGQGTKVEIKR
Reply text: 32200

Attribution: patent US20220048996A1
